From: patent US12649733B2

ASSAY_SYSTEM: BCLXL (Homo sapiens, UniProt Q07817, V10N/V9A)
Sequence (Q07817 with tags, fused parts or gaps V9A/V10N): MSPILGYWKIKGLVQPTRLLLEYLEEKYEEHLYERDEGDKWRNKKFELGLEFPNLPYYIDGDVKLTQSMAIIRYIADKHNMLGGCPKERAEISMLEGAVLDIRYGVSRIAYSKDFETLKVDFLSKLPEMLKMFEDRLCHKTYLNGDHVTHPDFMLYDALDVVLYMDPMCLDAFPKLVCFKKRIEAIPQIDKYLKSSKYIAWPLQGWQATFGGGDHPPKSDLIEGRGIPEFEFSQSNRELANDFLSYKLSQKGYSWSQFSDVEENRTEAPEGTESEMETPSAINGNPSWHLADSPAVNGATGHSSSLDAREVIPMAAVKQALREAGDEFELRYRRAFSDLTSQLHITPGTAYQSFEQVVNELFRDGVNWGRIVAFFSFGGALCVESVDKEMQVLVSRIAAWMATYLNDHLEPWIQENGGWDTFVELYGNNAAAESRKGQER
METHOD_SUMMARY: AlphaLISA assay (BIM peptide displacement)
EXPERIMENTAL_SETUP: 20 pM protein, 1 nM peptide
Measured IC50 values are reported for all entries that follow.
Use nM as the unit, but write only the number.

// solved cases for IC50 follow
Cc1cc(N(CCCCCNCCN2CCOCC2)c2nc(C(=O)O)c(CCCOc3ccc(C#CCN(C)C)cc3F)s2)nnc1Nc1nc2ccccc2s1 [Example 166]: 0.0092
Cc1cc(N(C)c2nc(C(=O)O)c(C3CN(C(=O)OC(C)(C)C)C3)s2)nnc1Nc1nc2ccccc2s1 [Example 135]: 3.9
Cc1cc(N(C)c2nc(C(=O)O)c(C3CN(Cc4ccccc4)C3)s2)nnc1Nc1nc2ccccc2s1 [Example 145]: 190

response.value for Cc1cc(N(C)c2nc(C(=O)O)c(C3CCN(S(C)(=O)=O)CC3)s2)nnc1Nc1nc2ccccc2s1 [Example 94] (field: IC50) = 51

====

Measured pIC50, listed per entry for reference.
Test system: H146 cells
METHOD_SUMMARY: H146 cell viability, MTT assay
Assay type: cell-based
EXPERIMENTAL_SETUP: Homo sapiens, NCI-H146, 48 h, 48 h exposure
pIC50: −log10 of the molar value.

Cc1cc(N(C)c2nc(C(=O)O)c(C3CCCC3)s2)nnc1Nc1nc2ccccc2s1: < 4.82

Value of pIC50 reported for the compound `Cc1cc(N(C)c2nc(C(=O)O)c(N3CC[C@H](OCc4ccccc4)C3)s2)nnc1Nc1nc2ccccc2s1` is < 4.82

====

ASSAY_SYSTEM: BCLXL (Homo sapiens, UniProt Q07817, V10N/V9A)
METHOD_SUMMARY: Fluorescence polarisation assay (PUMA-based probe displacement); also: 20 nM protein, 10 nM fluorescent probe
Reported Ki values for the following compounds.

Cc1cc(N(C)c2nc(C(=O)O)c(CCCOc3ccc(C#CC[N+](C)(C)CCCS(=O)(=O)[O-])cc3F)s2)nnc1Nc1nc2ccccc2s1: < 1 nM
Cc1cc(N(CCCCNCCN2CCN(C)CC2)c2nc(C(=O)O)c(CCCOc3ccc(C#CCN(C)C)cc3F)s2)nnc1Nc1nc2ccccc2s1: < 1 nM
Cc1cc(N(CCCCCN(C)C2CCNCC2)c2nc(C(=O)O)c(CCCOc3ccc(C#CCN(C)C)cc3F)s2)nnc1Nc1nc2ccccc2s1: < 1 nM

Could you now consider this next compound?
Let me check: `Cc1cc(N(C)c2ccc(-c3cnn(CC45CC6CC(CC(C6)C4)C5)c3C)c(C(=O)O)n2)nnc1Nc1nc2ccccc2s1` , system BCLXL (Homo sapiens, UniProt Q07817, V10N/V9A), measured Ki is < 1 nM

====

Test system: H146 cells
METHOD_SUMMARY: H146 cell viability, MTT assay
Format: cell-based
EXPERIMENTAL_SETUP: Homo sapiens, NCI-H146, 48 h, 48 h exposure
pIC50: −log10 of the molar value.
Below: a set of entries, each annotated with reported pIC50.

Reference set (2 entries):
CCCN(c1cc(C)c(Nc2nc3ccccc3s2)nn1)c1nc(C(=O)O)cs1: ≤ 4.93
COCCN(c1cc(C)c(Nc2nc3ccccc3s2)nn1)c1nc(C(=O)O)cs1: < 4.82

Now for a further molecule.
Response field pIC50 (H146 cells) for item `Cc1c(Nc2nc3ccccc3s2)nnc(Nc2nc(C(=O)O)cs2)c1CO` : < 4.82
